target desc: IRAK-4 (Homo sapiens, UniProt Q9NWZ3)
Sequence (Q9NWZ3 1-460): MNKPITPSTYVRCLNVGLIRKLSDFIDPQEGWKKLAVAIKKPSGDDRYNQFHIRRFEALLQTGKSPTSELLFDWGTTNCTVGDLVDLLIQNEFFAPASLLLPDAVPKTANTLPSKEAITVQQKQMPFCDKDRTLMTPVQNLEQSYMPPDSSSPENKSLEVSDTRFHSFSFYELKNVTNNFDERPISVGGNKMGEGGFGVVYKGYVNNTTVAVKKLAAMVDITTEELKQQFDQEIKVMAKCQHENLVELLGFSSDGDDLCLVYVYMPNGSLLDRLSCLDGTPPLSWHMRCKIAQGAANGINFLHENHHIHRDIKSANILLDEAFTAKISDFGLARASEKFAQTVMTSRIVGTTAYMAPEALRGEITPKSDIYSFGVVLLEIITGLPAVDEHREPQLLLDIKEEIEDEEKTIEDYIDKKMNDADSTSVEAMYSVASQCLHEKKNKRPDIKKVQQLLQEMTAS
run description: IRAK-4 ELISA, PBMC degradation
Format: cell-based
Parameters: endogenous in cells; host or cells: PBMC
condition description: treated overnight
The following compounds are listed with their measured DC50 values.

compound	measured value
CCN(C1CCC(n2cc3cc(NC(=O)c4cnn5cccnc45)c(OCC4CC4)cc3n2)CC1)C1CN(c2ccc3c(c2)C(=O)N(C2CCC(=O)NC2=O)C3=O)C1 (stereo not drawn)	1 to 5 nM
CCOc1cc2nn(C3CCN(CC4(F)CN(c5ccc6c(c5)C(=O)N(C5CCC(=O)NC5=O)C6=O)C4)CC3)cc2cc1NC(=O)c1cnn2cccnc12 (stereo not drawn)	1 to 5 nM
O=C1CCC(N2C(=O)c3ccc(N4CC(F)(CN5CCC(n6cc7cc(NC(=O)c8cnn9cccnc89)c(N8CCOCC8)cc7n6)CC5)C4)cc3C2=O)C(=O)N1 (stereo not drawn)	5 to 10 nM

What does the record list as DC50 for CC(C)Oc1cc2nn(C3CCN(CC4(F)CCN(c5ccc6c(c5)C(=O)N(C5CCC(=O)NC5=O)C6=O)CC4)CC3)cc2cc1NC(=O)c1cnn2cccnc12 (stereo not drawn) ? 5 to 10 nM

What does the record list as DC50 for O=C1CCC(N2C(=O)c3ccc(N4CC(F)(CN5CCC(n6cc7cc(NC(=O)c8cnn9cccnc89)c(OCC(F)F)cc7n6)CC5)C4)cc3C2=O)C(=O)N1 (stereo not drawn) [Example 232] ? 1 to 5 nM

What does the record list as DC50 for COc1cc(N2CCC(CN3CCC(N4Cc5cc(NC(=O)c6cnn7cccnc67)c(OC(C)C)cc5C4=O)CC3)CC2)cc2c1C(=O)N(C1CCC(=O)NC1=O)C2 (stereo not drawn) ? < 1 nM
